Tested on: SN12C
Test method notes: NCI tumour cell line growth inhibition, 48 h
The source made the active and inactive calls. No stated cut-off is given here; in the data, active = GI50 up to about 1.1 µM and inactive = higher.
Reported metric: GI50

Given the entry "O=C1[C@@H]2C3C=CC([C@H]4C(=O)N(CO)C(=O)[C@@H]34)[C@@H]2C(=O)N1CO" , report its measured GI50.
> 57.5 µM (inactive)

What value of GI50 has been reported for the following compound? "COc1cc2c(c(OC)c1OC)C(=O)[C@H]1OC(=O)N[C@@H]21"
> 100 µM (inactive)

Report GI50 for "O=C(CCC(=O)CC(O)(C(F)(F)F)C(F)(F)F)CC(O)(C(F)(F)F)C(F)(F)F" please.
42.6 µM (inactive)

Quick one: GI50 for CCCCNc1nc(NC2OCC(OC(C)=O)C(OC(C)=O)C2OC(C)=O)c(N=O)c(=O)n1C (stereo not drawn) ?
> 10 µM (inactive)

// returns reported GI50 for input "O=C1c2ccccc2C(=O)c2c(O)c(NCCCNCCO)cc(O)c21"
10.5 µM (inactive)

Consider the compound shown here: "O=C(O)CN(CC(=O)O)c1ccccc1" What is its recorded GI50?
> 100 µM (inactive)

What value of GI50 has been recorded for this entry: CC(=O)OCC1OC(n2c(Br)nc3c2c(=O)n(C)c(=O)n3C)C(OC(C)=O)C1OC(C)=O (stereo not drawn)
79.4 µM (inactive)

Would you mind telling me what GI50 value was observed for "N=C(N)SCCON1C(=O)c2ccccc2C1=O" ?
> 100 µM (inactive)

What value of GI50 has been recorded for this entry: "O=C(O)c1cc(NCc2cc(O)ccc2O)ccc1O"
> 100 µM (inactive)

Consider the compound shown here: "COc1ccc(/C=C2\N=C(SC)NC2=O)cc1" What is its recorded GI50?
> 100 µM (inactive)

Any idea what its GI50 is? The compound is CCN(CC)CC[S+]([O-])c1c2cc(OC)ccc2nc2ccc(OC)cc12 (stereo not drawn)
4.49 µM (inactive)

I am curious: what GI50 value has been reported for "C=C1CN2CC(=C)CN(C1)CS(=O)(=O)N1CC(=C)CN(CC(=C)C1)S(=O)(=O)N1CC(=C)CN(CC(=C)C1)S(=O)(=O)C2" ?
43.4 µM (inactive)

Which GI50 reading was recorded for the compound CCCCCCCCCCCCCCCCSCC(COC)COP(=O)([O-])OCC[N+](C)(C)C (stereo not drawn) ?
3.24 µM (inactive)

Fill blank: measured GI50 of the compound "C[C@@]12C[C@@H](c3ccccc3O1)N1CCSC1=N2" is ____.
> 100 µM (inactive)

Quick one: GI50 for C=CCNC(=O)NCCCCC(NC(C)=O)C(=O)NCc1ccccc1 (stereo not drawn) ?
> 100 µM (inactive)

Which value of GI50 has been reported for "COc1ccc(C(=O)/C=C/c2ccc(OCC(=N)N)cc2)cc1OC" in the records?
> 10 µM (inactive)

Given "COc1ccc(C(=O)Nc2ccccc2)cc1[N+](=O)[O-]" , state its recorded GI50.
> 100 µM (inactive)

Suppose we examine the compound CC1Cc2cc(O)c(O)cc2-c2cc(O)c(O)cc2CC1C (stereo not drawn) ; what GI50 value has been reported?
20.9 µM (inactive)

* * *

Test system: COLO 205
Test method notes: NCI tumour cell line growth inhibition, 48 h
Calls of active or inactive are those of the source. No stated cut-off is given here; in the data, active = GI50 up to about 1.1 µM and inactive = higher.
Reported metric: GI50

Please tell me: GI50 of "COc1ccccc1NC(=S)Nc1cc(C)ccn1" , system COLO 205?
> 100 µM (inactive)

Give COLO 205 GI50 for "CC(C)=C/C(CC(O)(C(F)(F)F)C(F)(F)F)=N\O"
> 100 µM (inactive)

What value of GI50 on COLO 205 does "CCC/C(Cl)=N/OC(NC(=O)OCC)(C(F)(F)F)C(F)(F)F" have?
19.8 µM (inactive)

Provide the documented GI50 with COLO 205 as the system for "COc1ccc(/C=C(/c2ccccc2)c2c(C)cc(C)c(/C(=C\c3ccc(OC)cc3)c3ccccc3)c2/N=N/c2cc(C)cc(C)c2)cc1"
8.04 µM (inactive)

// lookup GI50 | system=COLO 205 | key= "COc1cc2c(c(OC)c1OC)C(=O)[C@H]1OC(=O)N[C@@H]21"
> 100 µM (inactive)

Hello, I am looking for reported GI50 with COLO 205 for "COc1ccc(/C=C2\N=C(SC)NC2=O)cc1" . Could you help?
98.6 µM (inactive)

* * *

Exercise: for every item that follows, state its recorded GI50.
System: UACC-257
Test method notes: NCI tumour cell line growth inhibition, 48 h
Calls of active or inactive are those of the source. No stated cut-off is given here; in the data, active = GI50 up to about 1.1 µM and inactive = higher.

Request - read-out GI50 | tested on UACC-257 | compound COP(=O)(OC)C(NC(=O)C(F)(F)F)(c1ccccc1)C(F)(F)F (stereo not drawn)
> 100 µM (inactive)

Quick check: GI50 on UACC-257, item Cc1ccc(C2NC(=N)NC3=C2CCOc2c3ccc3ccccc23)cc1 (stereo not drawn) ?
31.3 µM (inactive)

Given the entry O=C1CC(O)C=C1Nc1ccc(Cl)cc1 (stereo not drawn) , what GI50 was observed with UACC-257?
52.4 µM (inactive)

* * *

System: KM12
Test method notes: NCI tumour cell line growth inhibition, 48 h
Calls of active or inactive are those of the source. No stated cut-off is given here; in the data, active = GI50 up to about 1.1 µM and inactive = higher.
Reported metric: GI50

Form field: reported GI50 of N#CC(C#N)=c1ccc(=C2NCC3CCCN23)cc1 (stereo not drawn)
> 100 µM (inactive)

Give its GI50 value. Item: "CC(=O)N1CCN(C=S)CC1"
> 100 µM (inactive)

Would you kindly share the measured GI50 for "O=C(O)CN(CC(=O)O)c1ccccc1" ?
60.1 µM (inactive)

# get_value(readout='GI50', item= "O=C(O)/C=C/C(=O)Nc1cccc2c1-c1ccccc1C2=O" )
16.9 µM (inactive)

Recorded GI50 of CCCCOC(=O)C1CN2C(=NC1(C(F)(F)F)C(F)(F)F)Sc1ccccc12 (stereo not drawn) , please.
27.2 µM (inactive)

Any idea what GI50 was measured for CCCCCC(=O)C(C)C1=Nc2nnc(CCCCCCCc3nnc4n3C(=O)C(C(C)C(=O)CCCCC)=N4)n2C1=O (stereo not drawn) ?
> 100 µM (inactive)

Quick one: GI50 for O=C1C(CN2CCOCC2)CCCC1CN1CCOCC1 (stereo not drawn) ?
5.98 µM (inactive)

I am curious: what GI50 value has been reported for "CCOC(=O)c1[nH]c2c(OC)n[n+]([O-])cc2c1[N+](=O)[O-]" ?
15 µM (inactive)

* * *

Tested on: NCI/ADR-RES
Test method notes: NCI tumour cell line growth inhibition, 48 h
Active and inactive are the calls of the source. Cut-off read from the data, not from the text of the source: active = GI50 up to about 1.1 µM and inactive = higher.
Record form. Attribute: GI50. Fill in for each entry.

Consider the compound shown here: "NC1=NC(=O)[C@H](Cc2c[nH]c3ccccc23)N1C(=O)OCc1ccccc1" What is its recorded GI50?
> 100 µM (inactive)

Can you share its GI50? I mean this compound: "Cc1ccc(Cc2n[nH]c(=O)n2Nc2ccccc2)cc1"
> 100 µM (inactive)

Data request, read-out GI50, for "C(=N\NC1=NCCN1)/c1cccc2cc3ccncc3nc12"
3.24 µM (inactive)

What value of measured GI50 is listed for CCC(C)(C)C1CCC2c3c([nH]c4ccccc34)C3C(=O)N(c4ccc(OC)cc4)C(=O)C3C2C1 (configuration not stated) ?
15.6 µM (inactive)

Name the recorded GI50 for "COc1ccc(/C=C(/c2ccccc2)c2c(C)cc(C)c(/C(=C\c3ccc(OC)cc3)c3ccccc3)c2/N=N/c2cc(C)cc(C)c2)cc1" .
> 100 µM (inactive)

I'd like to know its GI50. The compound in question is OCC(O)C1OC2CC1Nc1ccccc1N2 (configuration not stated)
> 100 µM (inactive)

Quick one: GI50 of "COc1cc(/C=C/c2ccc(OC)c(OC)c2)oc(=O)c1" ?
> 250 µM (inactive)

* * *

Hi there, I'd appreciate the recorded GI50 for every entry that follows.
System: MDA-N
Test method notes: NCI tumour cell line growth inhibition, 48 h
Calls of active or inactive are those of the source. No stated cut-off is given here; in the data, active = GI50 up to about 1.1 µM and inactive = higher.

Quick check: GI50 of CCCCN1CN2C(=O)C(C(=O)OCC)C(=O)c3sc4nc(SC)nc1c4c32 (stereo unspecified) ?
17.1 µM (inactive)

Any idea what its GI50 is? The compound is "N=C(N)SCCON1C(=O)c2ccccc2C1=O"
> 100 µM (inactive)

Reported GI50 for "CNC(=O)O/N=C1\N(C)CN(c2ccccc2)C12CCN(CCCC(=O)c1ccc(F)cc1)CC2" : what is it?
39.4 µM (inactive)

Returns the measured GI50 for the input compound. Input: N#CC1=C(S)N(C2OC(CO)C(O)C(O)C2O)C(c2ccccc2)=CC1c1ccco1 (stereo unspecified)
93.3 µM (inactive)

For the compound shown here, "CCOC(=O)c1[nH]c2nc(SC)nc(NC)c2c1N" , give the reported GI50.
> 100 µM (inactive)

May I ask what GI50 has been recorded for COc1ccc(CC2OC3(CCCCC3)CC3CCCCN32)cc1 (stereo unspecified) ?
52.6 µM (inactive)

Find the recorded GI50 belonging to COc1cc2c(cc1OCCCC(=O)Nc1cc(C(=O)NCCCN(C)C)n(C)n1)N=CC1CCCN1C2=O (stereo unspecified) and report it.
23.3 µM (inactive)

Reported GI50, compound "Nc1csc(-c2scc3c2OCCO3)c1N" : ____
15.4 µM (inactive)

Suppose we examine the compound "CCOC(=O)c1cc(-n2nnc3ccccc32)cn1C" ; what GI50 value has been reported?
> 10 µM (inactive)

Which GI50 is listed for "Cc1ccc(C2=CC(=O)/C(=C\C(=O)c3ccc(Br)cc3)O2)c(C)c1" ?
6.11 µM (inactive)

Which GI50 value belongs to "O=P1(c2ccccc2)c2ccccc2-c2ccccc21" ?
97.7 µM (inactive)

The origin of these recorded values is ChEMBL document CHEMBL1201862.
